target: PTPN2 (HiBIT-PTPN2 in 293T.109 cells) (Homo sapiens); construct: expressed in transfected cells; host or cells: 293T.109 (293T WT from ATCC); assay: HiBiT Degradation 293T.109 PTPN2 (Nano-Glo HiBiT Lytic Assay); format: cell-based; settings: 24.0 hours
Sequence (P17706 whole entry, species assumed): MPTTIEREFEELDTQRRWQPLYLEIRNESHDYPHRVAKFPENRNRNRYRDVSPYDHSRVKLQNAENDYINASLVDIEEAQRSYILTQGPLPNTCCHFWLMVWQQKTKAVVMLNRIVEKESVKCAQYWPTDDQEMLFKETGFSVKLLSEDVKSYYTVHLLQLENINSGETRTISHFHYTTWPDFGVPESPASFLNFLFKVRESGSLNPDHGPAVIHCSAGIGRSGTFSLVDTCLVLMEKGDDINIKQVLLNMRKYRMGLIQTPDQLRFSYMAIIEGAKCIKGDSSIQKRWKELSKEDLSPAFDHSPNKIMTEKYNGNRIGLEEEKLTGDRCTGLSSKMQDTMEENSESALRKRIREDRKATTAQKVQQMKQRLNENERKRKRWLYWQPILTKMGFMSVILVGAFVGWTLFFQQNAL
measurementLabel: DC50

| compound | reported |
| --- | --- |
| CC1(C)C[C@@H](Nc2cccc(-c3sc(C(=O)O)c(OCC(=O)O)c3Cl)c2)CCN1S(=O)(=O)Cc1cccc(NCCNCCCc2ccc3c4c(cccc24)C(=O)N3C2CCC(=O)NC2=O)c1 (stereo partly drawn) [Example 201] | 50 to 200 nM |
| O=C(O)COc1c(C(=O)O)sc(-c2cccc(NC3CCN(S(=O)(=O)Cc4ccc(F)c(NC(=O)C5CCN(C(=O)CNc6cccc7c6CN(C6CCC(=O)NC6=O)C7=O)CC5)c4)CC3)c2)c1Cl (stereo not drawn) [Example 77] | 50 to 200 nM |
| CC(C)n1c(=O)n(C2CCC(=O)NC2=O)c2ccc(C3CCN(C(=O)Nc4cccc(CS(=O)(=O)N5CC[C@H](Nc6cccc(-c7sc(C(=O)O)c(OCC(=O)O)c7Cl)c6)CC5(C)C)c4)CC3)cc21 (single isomer, unassigned) [Example 87b] | 50 to 200 nM |
| CC1(C)C[C@@H](Nc2cccc(-c3sc(C(=O)O)c(OCC(=O)O)c3Cl)c2)CCN1S(=O)(=O)Cc1cccc(NC(=O)N2CCC(c3ccc4c5c(cccc35)C(=O)N4C3CCC(=O)NC3=O)CC2)c1 (stereo partly drawn) [Example 82] | < 50 nM |
| Cn1c(=O)n(C2CCC(=O)NC2=O)c2ccc(C3CN(C(=O)Nc4cccc(CS(=O)(=O)N5CC[C@H](Nc6cccc(-c7sc(C(=O)O)c(OCC(=O)O)c7Cl)c6)CC5(C)C)c4)CCC3F)cc21 (stereo partly drawn) [Example 212] | 200 to 1000 nM |
| CC1(C)C[C@@H](Nc2cccc(-c3sc(C(=O)O)c(OCC(=O)O)c3Cl)c2)CCN1S(=O)(=O)Cc1cccc(NC(=O)C2CN(C(=O)COc3cccc4c3CN(C3CCC(=O)NC3=O)C4=O)C2)c1 (stereo partly drawn) [Example 74] | < 50 nM |
| CC1(C)C[C@@H](Nc2cccc(-c3sc(C(=O)O)c(OCC(=O)O)c3Cl)c2)CCN1S(=O)(=O)Cc1cccc(NC(=O)CCCCCn2cc(CNc3cccc4c3C(=O)N(C3CCC(=O)NC3=O)C4=O)nn2)c1 (stereo partly drawn) [Example 12] | 200 to 1000 nM |
| Cn1c(=O)n(C2CCC(=O)NC2=O)c2ccc(C3CCN(C(=O)Nc4cccc(CS(=O)(=O)N5CCC(Oc6cccc(-c7sc(C(=O)O)c(OCC(=O)O)c7Cl)c6)CC5)c4)CC3)cc21 (stereo not drawn) [Example 103] | 200 to 1000 nM |
| CC1(C)C[C@@H](Nc2cccc(-c3sc(C(=O)O)c(OCC(=O)O)c3Cl)c2)CCN1S(=O)(=O)Cc1ccc(F)c(NC(=O)C2CN(C(=O)CNc3cccc4c3CN(C3CCC(=O)NC3=O)C4=O)C2)c1 (stereo partly drawn) [Example 109] | < 50 nM |

---

Target: PTPN2 (B16F10.4 cells) (Mus musculus, UniProt Q06180)
Construct: HiBiT; host or cells: B16F10.4
Sequence (Q06180 1-406): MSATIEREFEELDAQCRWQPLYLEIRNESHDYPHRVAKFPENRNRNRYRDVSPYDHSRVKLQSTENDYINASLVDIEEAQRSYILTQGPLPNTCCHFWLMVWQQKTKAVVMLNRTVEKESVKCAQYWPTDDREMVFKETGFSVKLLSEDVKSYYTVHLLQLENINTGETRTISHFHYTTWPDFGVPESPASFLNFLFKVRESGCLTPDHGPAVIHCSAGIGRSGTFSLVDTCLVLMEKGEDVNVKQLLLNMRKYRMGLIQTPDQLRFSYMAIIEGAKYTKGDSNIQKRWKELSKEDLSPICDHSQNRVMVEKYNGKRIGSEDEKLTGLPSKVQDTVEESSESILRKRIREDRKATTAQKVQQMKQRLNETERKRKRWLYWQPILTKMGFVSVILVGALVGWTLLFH
Experiment: HiBiT Degradation B16F10.4 PTPN2
Format: cell-based
Details: 24.0 hours

| compound | subjectOfTest | DC50 |
| --- | --- | --- |
| C[C@H]1CN(C(=O)Nc2cccc(CS(=O)(=O)N3CC[C@H](Nc4cccc(-c5sc(C(=O)O)c(OCC(=O)O)c5Cl)c4)CC3(C)C)c2)CCN1c1ccc2c(c1)n(C)c(=O)n2C1CCC(=O)NC1=O (stereo partly drawn) | PTPN2 (B16F10.4 cells) (Mus musculus, UniProt Q06180) | 50 to 200 nM |
| CC1(C)C[C@@H](Nc2cccc(-c3sc(C(=O)O)c(OCC(=O)O)c3Cl)c2)CCN1S(=O)(=O)Cc1cccc(NC(=O)CN2CCC(c3ccc4c5c(cccc35)C(=O)N4C3CCC(=O)NC3=O)CC2)c1 (stereo partly drawn) | PTPN2 (B16F10.4 cells) (Mus musculus, UniProt Q06180) | 50 to 200 nM |
| CC1(C)C[C@@H](Nc2cccc(-c3sc(C(=O)O)c(OCC(=O)O)c3Cl)c2)CCN1S(=O)(=O)Cc1cccc(NC(=O)N2CCC(c3ccc4c(c3)n(CC(F)(F)F)c(=O)n4C3CCC(=O)NC3=O)CC2)c1 (stereo partly drawn) | PTPN2 (B16F10.4 cells) (Mus musculus, UniProt Q06180) | 50 to 200 nM |
| COCCn1c(=O)n(C2CCC(=O)NC2=O)c2ccc(C3CCN(C(=O)Nc4cccc(CS(=O)(=O)N5CC[C@H](Nc6cccc(-c7sc(C(=O)O)c(OCC(=O)O)c7Cl)c6)CC5(C)C)c4)CC3)cc21 (stereo partly drawn) | PTPN2 (B16F10.4 cells) (Mus musculus, UniProt Q06180) | 50 to 200 nM |
| CC1(C)C[C@@H](Nc2cccc(-c3sc(C(=O)O)c(OCC(=O)O)c3Cl)c2)CCN1S(=O)(=O)Cc1cccc(NCCNCCCc2ccc3c4c(cccc24)C(=O)N3C2CCC(=O)NC2=O)c1 (stereo partly drawn) | PTPN2 (B16F10.4 cells) (Mus musculus, UniProt Q06180) | 50 to 200 nM |
| CC1(C)C[C@@H](Nc2cccc(-c3sc(C(=O)O)c(OCC(=O)O)c3Cl)c2)CCN1S(=O)(=O)Cc1cccc(NC(=O)CCOCCn2cc(CNc3cccc4c3C(=O)N(C3CCC(=O)NC3=O)C4=O)nn2)c1 (stereo partly drawn) | PTPN2 (B16F10.4 cells) (Mus musculus, UniProt Q06180) | 200 to 1000 nM |
| CC1(C)C[C@@H](Nc2cccc(-c3sc(C(=O)O)c(OCC(=O)O)c3Cl)c2)CCN1S(=O)(=O)Cc1cccc(NC(=O)C2C[C@@H]3CN(C(=O)CNc4cccc5c4CN(C4CCC(=O)NC4=O)C5=O)C[C@@H]3C2)c1 (stereo partly drawn) | PTPN2 (B16F10.4 cells) (Mus musculus, UniProt Q06180) | ≥ 1000 nM |
| Cn1c(=O)n(C2CCC(=O)NC2=O)c2ccc(C3CCN(C(=O)Nc4cccc(CS(=O)(=O)N5CC[C@H](Nc6cccc(-c7sc(C(=O)O)c(OCC(=O)O)c7Cl)c6)CC5(C)C)c4)CC3)c(F)c21 (stereo partly drawn) | PTPN2 (B16F10.4 cells) (Mus musculus, UniProt Q06180) | 50 to 200 nM |
| Cn1c(=O)n(C2CCC(=O)NC2=O)c2ccc(C3CCN(C(=O)Nc4cccc(CS(=O)(=O)N5CC[C@@H](Nc6cc(-c7sc(C(=O)O)c(OCC(=O)O)c7Cl)ccc6F)CC5(C)C)c4)CC3)cc21 (stereo partly drawn) | PTPN2 (B16F10.4 cells) (Mus musculus, UniProt Q06180) | 50 to 200 nM |
| CC(C)n1c(=O)n([C@@H]2CCC(=O)NC2=O)c2ccc(C3CCN(C(=O)Nc4cccc(CS(=O)(=O)N5CC[C@H](Nc6cccc(-c7sc(C(=O)O)c(OCC(=O)O)c7Cl)c6)CC5(C)C)c4)CC3)cc21 (single isomer, unassigned) [Example 87a] | PTPN2 (B16F10.4 cells) (Mus musculus, UniProt Q06180) | 50 to 200 nM |
| Cn1c(=O)n(C2CCC(=O)NC2=O)c2ccc(Nc3cccc(CC(=O)Nc4cccc(CS(=O)(=O)N5CC[C@H](Nc6cccc(-c7sc(C(=O)O)c(OCC(=O)O)c7Cl)c6)CC5(C)C)c4)c3)cc21 (stereo partly drawn) | PTPN2 (B16F10.4 cells) (Mus musculus, UniProt Q06180) | 50 to 200 nM |
| CC1(C)C[C@@H](Nc2cccc(-c3sc(C(=O)O)c(OCC(=O)O)c3Cl)c2)CCN1S(=O)(=O)Cc1cccc(NC(=O)CN2CCC(n3c(=O)n(C4CCC(=O)NC4=O)c4ccccc43)CC2)c1 (stereo partly drawn) | PTPN2 (B16F10.4 cells) (Mus musculus, UniProt Q06180) | 200 to 1000 nM |
| CC1(C)C[C@@H](Nc2cccc(-c3sc(C(=O)O)c(OCC(=O)O)c3Cl)c2)CCN1S(=O)(=O)Cc1cccc(NC(=O)C2CN(C(=O)CNc3cccc4c3CN([C@@H]3CCC(=O)NC3=O)C4=O)C2)c1 (single isomer, unassigned) [Example 44a] | PTPN2 (B16F10.4 cells) (Mus musculus, UniProt Q06180) | 200 to 1000 nM |
| Cn1c(=O)n(C2CCC(=O)NC2=O)c2ccc(CCC(=O)Nc3cccc(CS(=O)(=O)N4CCC(Nc5cccc(-c6sc(C(=O)O)c(OCC(=O)O)c6Cl)c5)CC4)c3)cc21 (stereo not drawn) | PTPN2 (B16F10.4 cells) (Mus musculus, UniProt Q06180) | 200 to 1000 nM |
| O=C(O)COc1c(C(=O)O)sc(-c2cccc(NC3CCN(S(=O)(=O)Cc4cccc(NC(=O)N5CCC(Nc6cccc7c6CN(C6CCC(=O)NC6=O)C7=O)CC5)c4)CC3)c2)c1Cl (stereo not drawn) | PTPN2 (B16F10.4 cells) (Mus musculus, UniProt Q06180) | 200 to 1000 nM |
| Cn1c(=O)n(C2CCC(=O)NC2=O)c2ccc([C@@H]3CN(C(=O)Nc4cccc(CS(=O)(=O)N5CC[C@H](Nc6cccc(-c7sc(C(=O)O)c(OCC(=O)O)c7Cl)c6)CC5(C)C)c4)CC[C@H]3F)cc21 (stereo partly drawn) | PTPN2 (B16F10.4 cells) (Mus musculus, UniProt Q06180) | 50 to 200 nM |
| CC(C)n1c(=O)n(C2CCC(=O)NC2=O)c2ccc(C3CCN(C(=O)Nc4cccc(CS(=O)(=O)N5CC[C@H](Nc6cccc(-c7sc(C(=O)O)c(OCC(=O)O)c7Cl)c6)CC5(C)C)c4)CC3)cc21 (stereo partly drawn) [Example 137] | PTPN2 (B16F10.4 cells) (Mus musculus, UniProt Q06180) | 50 to 200 nM |
| CC1(C)C[C@@H](Nc2cccc(-c3sc(C(=O)O)c(OCC(=O)O)c3Cl)c2)CCN1S(=O)(=O)Cc1cccc(NC(=O)CNc2ccc3c(c2)CN(C2CCC(=O)NC2=O)C3=O)c1 (stereo partly drawn) | PTPN2 (B16F10.4 cells) (Mus musculus, UniProt Q06180) | 200 to 1000 nM |
